Can you tell me relative binding ratio (IC50 of standard peptide / IC50 of test peptide) for the items I'm about to list?
study-target: HLA-A*0201 (human)
assay-protocol: competition with 125I-labelled standard peptide for purified HLA-A*0201, gel filtration

Lookup: Answer with reported relative binding ratio (IC50 of standard peptide / IC50 of test peptide) of GAANTGKSL (modifications not checked) [HPV16 E1 477 peptide …]
Found: 0.0003

Lookup: Identify the reported relative binding ratio (IC50 of standard peptide / IC50 of test peptide) for the following entry. ELRHYSDSV (modifications not checked) [HPV18 E6 peptide … (position 77)]
Found: 0.0003

Lookup: Write down relative binding ratio (IC50 of standard peptide / IC50 of test peptide) measured for item DLRAFQQLFL (modifications not checked) [HPV18 E7 peptide … (position 82)]
Found: 0.001
